Molecular target: human PPAR α (Homo sapiens, UniProt Q07869)
Construct: expressed in transfected cells; host or cells: HepG2 (ATCC HB-8065) or 293T cells (ATCC CRL-1573)
Assay: Exogeneous PPAR α agonist assay (GAL4 DNA binding domain/PPAR α ligand binding domain, luciferase) in 293T cells
Assay type: cell-based
Set-up: scale not given here
Details: 25 μM compound, 48 hours, luciferase activity increase relative to the control
Please go through the items and note down their Activity at 25 μM Step 1 293T cell.

### Prompt Returns the measured Activity at 25 μM Step 1 293T cell for the input compound. Input: "Cc1oc(-c2ccc(C(F)(F)F)cc2)nc1CCOc1cccc(CN(CC(=O)O)S(=O)(=O)N(C)C(C)C)c1"
### Response 2

### Prompt Another compound to check: "CN(C)S(=O)(=O)N(CC(=O)O)Cc1ccc(OCCc2coc(-c3ccccc3)n2)cc1"
### Response 5

### Prompt Another compound to check: "Cc1ccc(-c2nc(COc3cccc(CN(CC(=O)O)S(=O)(=O)N4CCCc5ccccc54)c3)c(C)o2)cc1"
### Response 2

### Prompt Another compound to check: "Cc1oc(-c2ccc(C(F)(F)F)cc2)nc1CCOc1cccc(CN(CC(=O)O)S(=O)(=O)N2CCN(C)CC2)c1"
### Response 1

### Prompt Another compound to check: "Cc1oc(-c2ccc(C(F)(F)F)cc2)nc1COc1cccc(CN(CC(=O)O)S(=O)(=O)N(C)c2ccc(Cl)cc2)c1"
### Response 2

### Prompt Another compound to check: "Cc1oc(-c2ccccc2)nc1COc1cccc(CN(CC(=O)O)S(=O)(=O)N2CCc3ccccc32)c1"
### Response 2

### Prompt Another compound to check: "Cc1oc(-c2ccc(C(F)(F)F)cc2)nc1CCOc1ccc(CN(CC(=O)O)S(=O)(=O)N(C)c2ccc(Cl)cc2)cc1"
### Response 2

### Prompt Another compound to check: "Cc1oc(-c2ccc(C(F)(F)F)cc2)nc1CCOc1cccc(CN(CC(=O)O)S(=O)(=O)N2CCOCC2)c1"
### Response 1

### Prompt Another compound to check: "Cc1ccc(-c2nc(COc3cccc(CN(CC(=O)O)S(=O)(=O)N(C)C)c3)c(C)o2)cc1"
### Response 3

### Prompt Another compound to check: "Cc1oc(-c2ccccc2)nc1COc1ccc(CN(CC(=O)O)S(=O)(=O)N2CCc3ccccc32)cc1"
### Response 2

### Prompt Another compound to check: "Cc1oc(-c2ccccc2)nc1CCOc1ccc(CN(CC(=O)O)S(=O)(=O)N(C)c2ccccc2)cc1"
### Response 2

### Prompt Another compound to check: "Cc1ccc(-c2nc(COc3ccc(CN(CC(=O)O)S(=O)(=O)N4CCOCC4)cc3)c(C)o2)cc1"
### Response 3

### Prompt Another compound to check: "CCN(c1cccc(C)c1)S(=O)(=O)N(CC(=O)O)Cc1cccc(OCc2nc(-c3ccc(C(F)(F)F)cc3)oc2C)c1"
### Response 5

### Prompt Another compound to check: "Cc1ccc(-c2nc(CCOc3cccc(CN(CC(=O)O)S(=O)(=O)N4CCCC4)c3)c(C)o2)cc1"
### Response 1

### Prompt Another compound to check: "Cc1oc(-c2ccccc2)nc1CCOc1ccc(CN(CC(=O)O)S(=O)(=O)N2CCc3ccccc32)cc1"
### Response 2

----------
Target: human PPAR α (Homo sapiens, UniProt Q07869)
Construct: expressed in transfected cells; host or cells: HepG2 (ATCC HB-8065) or 293T cells (ATCC CRL-1573)
Sequence (Q07869 239-466 limits assumed): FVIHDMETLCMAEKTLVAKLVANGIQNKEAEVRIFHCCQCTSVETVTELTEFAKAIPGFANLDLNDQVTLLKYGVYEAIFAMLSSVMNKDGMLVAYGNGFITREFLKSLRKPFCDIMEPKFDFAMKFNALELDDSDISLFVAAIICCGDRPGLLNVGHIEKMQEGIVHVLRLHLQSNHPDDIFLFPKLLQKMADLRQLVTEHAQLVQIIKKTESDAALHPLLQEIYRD
Assay: Exogeneous PPAR α agonist assay (GAL4 DNA binding domain/PPAR α ligand binding domain, luciferase) in 293T cells
Assay type: cell-based
Set-up: scale not given here
Settings: 25 μM compound, 48 hours, luciferase activity increase relative to the control
Please go through the items and note down their Activity at 25 μM Step 1 293T cell.
Form: value (number only, do not type unit).

### Prompt Returns the measured Activity at 25 μM Step 1 293T cell for the input compound. Input: "C=CCN(C)S(=O)(=O)N(CC(=O)O)Cc1cccc(OCc2nc(-c3ccc(C(F)(F)F)cc3)oc2C)c1"
### Response 3

### Prompt Another compound to check: "Cc1ccc(-c2nc(CCOc3ccc(CN(CC(=O)O)S(=O)(=O)N(C)C)cc3)c(C)o2)cc1"
### Response 2

### Prompt Another compound to check: "Cc1ccc(-c2nc(COc3cccc(CN(CC(=O)O)S(=O)(=O)N(C)c4ccc(Cl)cc4)c3)c(C)o2)cc1"
### Response 2

### Prompt Another compound to check: "CCN(CC)S(=O)(=O)N(CC(=O)O)Cc1cccc(OCCc2nc(-c3ccc(C)cc3)oc2C)c1"
### Response 3

### Prompt Another compound to check: Cc1ccc(-c2nc(COc3cccc(C(C)N(CC(=O)O)S(=O)(=O)N(C)C)c3)c(C)o2)cc1 (stereo not shown)
### Response 4

### Prompt Another compound to check: "Cc1oc(-c2ccc(C(F)(F)F)cc2)nc1COc1cccc(CN(CC(=O)O)S(=O)(=O)N2CCCC2)c1"
### Response 2

### Prompt Another compound to check: "Cc1oc(-c2ccc(C(F)(F)F)cc2)nc1CCOc1cccc(CN(CC(=O)O)S(=O)(=O)NC(C)(C)C)c1"
### Response 1

----------
Biological target: human PPAR α (Homo sapiens, UniProt Q07869)
Construct: expressed in transfected cells; host or cells: HepG2 (ATCC HB-8065) or 293T cells (ATCC CRL-1573)
Test: Exogeneous PPAR α agonist assay (GAL4 DNA binding domain/PPAR α ligand binding domain, luciferase) in HepG2 cells
Format: cell-based
Conditions: 25 μM compound, 48 hours, luciferase activity increase relative to the control
Experimental: Step 1) Exogeneous PPAR α Agonist Assay […] The transformation of PPAR α DNA was traced as follows. […] The luminescence intensities of F-luciferase and R-luciferase were measured with MicroLumat Plus (Berthord Technology).
Please go through the items and note down their Activity at 25 μM Step 1 HepG2 cell.
Form: value (number only, do not type unit).

### Prompt Request - read-out Activity at 25 μM Step 1 HepG2 cell | tested on human PPAR α (Homo sapiens, UniProt Q07869) | compound Cc1ccc(-c2nc(COc3cccc(C(C)N(CC(=O)O)S(=O)(=O)N(C)C)c3)c(C)o2)cc1 (stereo not drawn) [Example 126]
### Response 62

### Prompt Another compound to check: CCN(c1cccc(C)c1)S(=O)(=O)N(CC(=O)O)Cc1ccc(OCCc2nc(-c3ccc(C)cc3)oc2C)cc1 [Example 111]
### Response 25

### Prompt Another compound to check: CCN(CC)S(=O)(=O)N(CC(=O)O)Cc1cccc(OCCc2nc(-c3ccc(C)cc3)oc2C)c1 [Example 63]
### Response 33

### Prompt Another compound to check: CCN(CC)S(=O)(=O)N(CC(=O)O)C(C)c1cccc(OCc2nc(-c3ccc(C)cc3)oc2C)c1 (stereo not drawn) [Example 128]
### Response 25

### Prompt Another compound to check: CCN(CC)S(=O)(=O)N(CC(=O)O)Cc1ccc(OCCc2nc(-c3ccc(C)cc3)oc2C)cc1 [Example 101]
### Response 45

### Prompt Another compound to check: Cc1oc(-c2ccc(C(F)(F)F)cc2)nc1COc1cccc(CN(CC(=O)O)S(=O)(=O)N(C)c2cccc(F)c2)c1 [Example 23]
### Response 34

### Prompt Another compound to check: Cc1ccc(-c2nc(CCOc3ccc(CN(CC(=O)O)S(=O)(=O)N(C)c4cccc(F)c4)cc3)c(C)o2)cc1 [Example 113]
### Response 29

### Prompt Another compound to check: CN(C)S(=O)(=O)N(CC(=O)O)Cc1cccc(OCCc2coc(-c3ccccc3)n2)c1 [Example 131]
### Response 41

### Prompt Another compound to check: CN(C)S(=O)(=O)N(CC(=O)O)Cc1ccc(OCCc2coc(-c3ccccc3)n2)cc1 [Example 132]
### Response 32

### Prompt Another compound to check: C=CCN(C)S(=O)(=O)N(CC(=O)O)Cc1cccc(OCCc2nc(-c3ccc(C(F)(F)F)cc3)oc2C)c1 [Example 69]
### Response 40

### Prompt Another compound to check: CCN(c1cccc(C)c1)S(=O)(=O)N(CC(=O)O)Cc1cccc(OCc2nc(-c3ccc(C(F)(F)F)cc3)oc2C)c1 [Example 21]
### Response 40

### Prompt Another compound to check: CCN(CC)S(=O)(=O)N(CC(=O)O)Cc1cccc(OCc2nc(-c3ccc(C(F)(F)F)cc3)oc2C)c1 [Example 7]
### Response 54

### Prompt Another compound to check: Cc1ccc(-c2nc(COc3cccc(CN(CCC(=O)O)S(=O)(=O)N(C)C)c3)c(C)o2)cc1 [Example 130]
### Response 36

### Prompt Another compound to check: C#CCN(C)S(=O)(=O)N(CC(=O)O)Cc1cccc(OCc2nc(-c3ccc(C(F)(F)F)cc3)oc2C)c1 [Example 10]
### Response 45

### Prompt Another compound to check: Cc1oc(-c2ccc(C(F)(F)F)cc2)nc1CCOc1cccc(CN(CC(=O)O)S(=O)(=O)N2CCCCC2)c1 [Example 71]
### Response 44
